Values compiled from the RNAGym collection of RNA variant scans (doi:10.7554/elife.80360).

B1: HDV Ribozyme (parent)
chain: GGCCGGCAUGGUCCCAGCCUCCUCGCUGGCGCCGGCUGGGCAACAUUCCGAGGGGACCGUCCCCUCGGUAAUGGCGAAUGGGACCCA

- Variants of: B1
- Method Summary: self-cleavage, relative activity (ratio to wild type); higher = more cleavage; co-transcriptional
Quantity Kind: self-cleavage

Worked cases, answers included:
Please report the recorded self-cleavage for C13G G54C .
0.115

Please report the recorded self-cleavage for C7A A70G .
0.426

Please report the recorded self-cleavage for C66G A70G .
0.831

Please report the recorded self-cleavage for C48U A51G .
0.618

Please report the recorded self-cleavage for C4G C26A .
0.569

Please report the recorded self-cleavage for G38A G73A .
0.0875

Please report the recorded self-cleavage for C14A U47A .
0.639

Please report the recorded self-cleavage for C57G G68U .
1.01

***
Please report the recorded self-cleavage for C48A C61U .
0.911

Please report the recorded self-cleavage for U27C A83C .
0.554

Please report the recorded self-cleavage for A51G G54U .
1.07
